We begin with a simple list: items and their reported Kiuc.
- SYSTEM TESTED: Neuraminidase (Influenza A virus) (UniProt B4URF0)
- EXPERIMENTAL DETAILS: Noncompetitive inhibition of recombinant Influenza A virus H1N1 neuraminidase using MU-NANA as substrate

{"COMPOUND": "CC1=CC(=O)C2(O1)c1c(cc(/C=C/c3ccc(O)c(O)c3)oc1=O)OC2c1ccc(O)c(O)c1 (stereo not given) [INOSCAVIN A]", "Kiuc": "24.5 µM"}
{"COMPOUND": "O=c1cc(O)cc([C@H]2c3c(cc(/C=C/c4ccc(O)c(O)c4)oc3=O)O[C@@H]2c2ccc(O)c(O)c2)o1 [HYPHOLOMINE B]", "Kiuc": "20.9 µM"}
{"COMPOUND": "CC1=CC(=O)[C@H](c2c(O)cc(/C=C/c3ccc(O)c(O)c3)oc2=O)[C@@H](c2ccc(O)c(O)c2)O1 [DAVALLIALACTONE]", "Kiuc": "27.6 µM"}
{"COMPOUND": "O=c1oc2cc(/C=C/c3ccc(O)c(O)c3)oc(=O)c2c2cc(O)c(O)cc12 [PHELLIGRIDIN D]", "Kiuc": "15.9 µM"}
{"COMPOUND": "O=c1cc(O)cc(/C=C/c2ccc(O)c(O)c2)o1 [HISPIDIN]", "Kiuc": "43 µM"}

* * *

- EXPERIMENTAL DETAILS: Cytotoxicity against MDCK cells by SRB assay
- Type: cell-based, Canis lupus familiaris
- CONDITION PARAMETERS: dog

{"SMILES RECORD": "O=c1oc2cc(/C=C/c3ccc(O)c(O)c3)oc(=O)c2c2cc(O)c(O)cc12", "CC50": "> 100 µM"}
{"SMILES RECORD": "O=c1cc(O)cc([C@H]2c3c(cc(/C=C/c4ccc(O)c(O)c4)oc3=O)O[C@@H]2c2ccc(O)c(O)c2)o1", "CC50": "> 100 µM"}
{"SMILES RECORD": "O=c1cc(O)cc(/C=C/c2ccc(O)c(O)c2)o1", "CC50": "> 100 µM"}
